Tested on: M14
Assay: NCI tumour cell line growth inhibition, 48 h
The source made the active and inactive calls. Rule as the data show it: active = GI50 up to about 1.1 µM and inactive = higher.
experimental endpoint: GI50

*Q* # query: GI50 | item CS(=O)(=O)Oc1cccc(/C=N/N=C(\N)NO)c1 | system: M14
*A* 27.1 µM (inactive)

*Q* # query: GI50 | item COC(=O)C(=O)C(CC(=O)Nc1c(C)cccc1C)C(=O)OC (stereo not given) | system: M14
*A* > 100 µM (inactive)

*Q* # query: GI50 | item COc1ccc2c(c1)N(CCC1CCCCN1C)c1ccccc1S2 (stereo not given) [OXYRIDAZINE] | system: M14
*A* 3.13 µM (inactive)

*Q* # query: GI50 | item O=C1/C(=C/c2ccc(Cl)cc2)CSC/C1=C\c1ccc(Cl)cc1 | system: M14
*A* 1.84 µM (inactive)

*Q* # query: GI50 | item S=C1NCCN1C(=S)NC1CCCCC1 | system: M14
*A* 22.1 µM (inactive)

*Q* # query: GI50 | item COC(=O)[C@@H]1C(=O)O[C@@H](c2cc(OC)c(OC)cc2OC)[C@@H]1C(=O)OC.COC(=O)[C@H]1C(=O)O[C@@H](c2cc(OC)c(OC)cc2OC)[C@@H]1C(=O)OC | system: M14
*A* > 100 µM (inactive)

*Q* # query: GI50 | item CC(=O)c1ccc(-c2ccc(C(C)=O)s2)s1 | system: M14
*A* > 100 µM (inactive)

*Q* # query: GI50 | item CC(=O)NC(Cc1ccc(O)cc1)C(=O)O (stereo not given) | system: M14
*A* > 100 µM (inactive)

*Q* # query: GI50 | item COc1ccc(NC(C)=O)cc1N1C(=O)/C(=C\c2ccccc2)SC1c1cc(OC)c(OC)c(OC)c1 (stereo not given) | system: M14
*A* 35.6 µM (inactive)

*Q* # query: GI50 | item CC(C)=CCC[C@@H](C)c1c2nc3ccccc3[nH]c-2c(C)c(=O)c1O | system: M14
*A* 1.44 µM (inactive)

*Q* # query: GI50 | item O=C(/C=C/c1ccc(Cl)cc1)c1ccncc1 | system: M14
*A* 36.1 µM (inactive)

*Q* # query: GI50 | item CC(=O)c1cccc(Nc2nc3ccc(Cl)cc3c3[nH]c4ccccc4c23)c1 | system: M14
*A* 11 µM (inactive)

*Q* # query: GI50 | item CCOC(=O)c1c(/C=N\Nc2ccccc2)nc2ccccc2c1-c1ccccc1 | system: M14
*A* 36.7 µM (inactive)

*Q* # query: GI50 | item COC(=O)C1C(O)C(C)C(O)C(C)(O)C=C(C)C2=C3C(=C(C)C(=O)c4c(O)c(c(C)c(OC(C)=O)c43)NC(=O)C(C)=C/C=C\C(C)(O)C(O)C(C)C1O)OCO2 (stereo not given) | system: M14
*A* 43.6 µM (inactive)

*Q* # query: GI50 | item CC(C)(C)OC(=O)C1=C(N)N(Cc2ccccc2)C2(C)C=CC(=O)C=C12 (stereo not given) | system: M14
*A* 2.98 µM (inactive)

*Q* # query: GI50 | item FC(F)(F)c1ccc(C2=N/S(c3ccccc3)=N\C(c3ccc(C(F)(F)F)cc3)=N/S(c3ccccc3)=N\2)cc1 (stereo not given) | system: M14
*A* > 100 µM (inactive)

*Q* # query: GI50 | item O=c1c2ccccc2nc2n1CCc1c-2[nH]c2cc3c(cc12)OCO3 | system: M14
*A* > 25 µM (inactive)

*Q* # query: GI50 | item COC1=CCC2=C(CCN(C(=O)C3CC3)C2Cc2ccc(OC)c(O)c2)C1 (stereo not given) | system: M14
*A* 45 µM (inactive)

*Q* # query: GI50 | item CN(C(=O)Cc1cccc(N=C=S)c1)[C@H]1CCCC[C@@H]1N1CCCC1 | system: M14
*A* 17.8 µM (inactive)

*Q* # query: GI50 | item CCOc1c(OC)cc(-c2nc3n(n2)C(=O)C(CC)S3)cc1OC (stereo not given) | system: M14
*A* > 10 µM (inactive)

Values compiled from ChEMBL document CHEMBL1201862.
